# TEST_TARGET: Vhr1 (UniProt P40522)
# Sequence: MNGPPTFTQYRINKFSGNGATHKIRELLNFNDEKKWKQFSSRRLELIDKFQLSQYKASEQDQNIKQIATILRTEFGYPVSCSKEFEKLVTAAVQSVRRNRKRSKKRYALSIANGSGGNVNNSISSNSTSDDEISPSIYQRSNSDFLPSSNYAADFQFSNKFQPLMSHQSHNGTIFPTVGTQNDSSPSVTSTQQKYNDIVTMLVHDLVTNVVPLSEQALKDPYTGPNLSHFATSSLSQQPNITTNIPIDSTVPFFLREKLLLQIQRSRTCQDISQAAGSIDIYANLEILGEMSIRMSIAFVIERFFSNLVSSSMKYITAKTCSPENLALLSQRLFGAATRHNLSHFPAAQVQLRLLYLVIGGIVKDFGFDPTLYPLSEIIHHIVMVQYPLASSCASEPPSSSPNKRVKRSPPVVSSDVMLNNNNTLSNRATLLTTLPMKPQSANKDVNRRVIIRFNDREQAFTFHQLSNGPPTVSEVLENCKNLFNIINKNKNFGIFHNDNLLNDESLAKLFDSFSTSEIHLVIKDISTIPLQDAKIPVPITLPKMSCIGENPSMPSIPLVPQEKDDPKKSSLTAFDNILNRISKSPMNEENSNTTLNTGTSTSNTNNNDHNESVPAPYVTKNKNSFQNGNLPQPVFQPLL
# EXPERIMENT_SUMMARY: PBM E-score (8-mer binding enrichment) (E-score (-0.5 to 0.5)); higher = stronger / more preferred TF binding
# MEASUREMENT_SETUP: protein concentration: 200 nM; construct: GST-full length
Whole data set: some 33,000 sequences, median “E-score (-0.5 to 0.5)” near -0.012, cut for the highest 2% near 0.27. This excerpt belongs to a sample that is enriched for the highest values.
Measured PBM E-score, listed per entry for reference.
METRIC: PBM E-score

{"columns": ["RESIDUES", "OBSERVED_MEASUREMENT"],
 "data": [
  ["GGTCGGCA", -0.138],
  ["AACCCATT", 0.0791],
  ["GATTCCGC", 0.216],
  ["GCACCGAC", 0.0173],
  ["ACTGATCC", 0.0497],
  ["GCACTTTA", -0.249],
  ["GCTCACAC", 0.148],
  ["AACCCTGA", 0.286],
  ["CCTCACAA", 0.115],
  ["CATGGTTC", 0.364],
  ["CATGGGTA", 0.27],
  ["CCTCGGCG", 0.283],
  ["CTGAGATA", -0.128],
  ["GATTTCCA", 0.0482],
  ["CATTCACA", 0.00907],
  ["AAAGAATG", 0.0281],
  ["CTCGAGTC", 0.235],
  ["TGTCGGAA", 0.0453],
  ["GGGGCCCA", -0.0152],
  ["AACCAATG", 0.209],
  ["TATTCAGA", 0.178],
  ["AATGGTTC", 0.212],
  ["CCCCCTAC", -0.185],
  ["AAGTCACA", 0.246],
  ["GCGCTGGA", 0.168],
  ["ATGGTAGG", 0.104],
  ["CAGTCAAA", -0.0678],
  ["CACTGCGG", 0.213],
  ["CAAGAATC", 0.179],
  ["GATTCACA", 0.326],
  ["GTGTGCGA", 0.0262],
  ["GCCCACCC", 0.284],
  ["GTCATGTA", 0.141],
  ["ATAGGGGC", -0.0513],
  ["CATGGCTC", 0.28],
  ["AGCGAGTA", 0.119],
  ["ACTTGGGA", -0.155],
  ["CATTCACG", -0.114],
  ["AGTATGAA", 0.203],
  ["CGATTCAG", 0.12],
  ["CGCGAGTA", 0.112],
  ["ACCCCTGA", 0.143],
  ["ACGGTAGT", 0.125],
  ["CCTGAGTA", 0.205],
  ["CATGGTTA", 0.215]
]}
